Target: Nuclear receptor subfamily 1 group I member 2 (Homo sapiens) (UniProt O75469)
Sequence (O75469 whole entry, looked up): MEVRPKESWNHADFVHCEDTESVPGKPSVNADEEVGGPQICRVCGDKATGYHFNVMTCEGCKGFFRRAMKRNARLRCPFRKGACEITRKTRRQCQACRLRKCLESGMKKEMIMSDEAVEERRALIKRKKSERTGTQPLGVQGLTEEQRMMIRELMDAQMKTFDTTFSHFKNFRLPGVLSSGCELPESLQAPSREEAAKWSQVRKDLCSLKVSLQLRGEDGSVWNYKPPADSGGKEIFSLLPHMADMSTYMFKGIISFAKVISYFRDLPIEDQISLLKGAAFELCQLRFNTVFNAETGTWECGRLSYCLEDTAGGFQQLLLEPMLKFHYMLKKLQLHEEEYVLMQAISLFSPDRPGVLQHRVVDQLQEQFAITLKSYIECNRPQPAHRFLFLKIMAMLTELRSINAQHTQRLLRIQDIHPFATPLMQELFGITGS
Test: ATG_PXR_TRANS: Attagene TRANS-FACTORIAL HepG2 Assay for human Pregnane X Receptor (PXR) (AID 2283008)
Results filed as inconclusive are left out. The source made the active and inactive calls. The calls were made as follows: active = hit-call score of the fitted dose curve at least 0.9, where 1 is the maximum; inconclusive = response in the unintended direction; inactive = score below 0.9.
PARAMETER MEASURED: AC50

Take a look at these entries with their results.
> print(dat)
                                    compound  parameter.measured        test.value
 1  CCCCC(C#N)(Cn1cncn1)c1ccc(Cl)cc1 (configuration not stated)                AC50          inactive
 2      Cc1ccc(N=CN(C)C=Nc2ccc(C)cc2C)c(C)c1                AC50          inactive
 3  C=C(C)CN(CC)c1c([N+](=O)[O-])cc(C(F)(F)F)cc1[N+](=O)[O-]                AC50  13.6 µM (active)
 4  CCCC(=NOCC)C1=C(O)CC(CC(C)SCC)CC1=O (configuration not stated)                AC50          inactive
 5    CC(C)Oc1cccc(NC(=O)c2ccccc2C(F)(F)F)c1                AC50  23.4 µM (active)
 6  CCC(C)n1c(=O)[nH]c(C)c(Br)c1=O (configuration not stated)                AC50          inactive
 7                   CCOc1nc(C(Cl)(Cl)Cl)ns1                AC50          inactive
 8              Nc1c(Cl)c(F)nc(OCC(=O)O)c1Cl                AC50          inactive
 9  CC1(C)CCC(=Cc2ccc(Cl)cc2)C1(O)Cn1cncn1 (configuration not stated)                AC50  9.33 µM (active)
10      COC(=O)NC(=S)Nc1ccccc1NC(=S)NC(=O)OC                AC50          inactive

Value of measured AC50 for the entry O=C1C2CC=CCC2C(=O)N1SC(Cl)(Cl)Cl (configuration not stated) : inactive

Value of measured AC50 for the entry `CC1(C)CON(Cc2ccccc2Cl)C1=O` : inactive

* * *

Read-out: Cytochrome P450 2B6 (Homo sapiens)
Assay: CLD_CYP2B6_48hr: CellzDirect (CLD) Gene Expression Assay for xenobiotic metabolism (CYP2B6) at 48 hours (AID 2283699);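 also: actives raise transcript level above DMSO so potency reflects induction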
Description: CLD_48hr is a cell-based, multiplexed-readout assay that uses hepatocyte, a human liver primary cell, with measurements taken at 48 hours after chemical dosing in a 96-well plate.CLD_CYP2B6_48hr is one of 16 assay component(s) measured or calculated from the CLD_48hr assay. […] Furthermore, this assay endpoint can be referred to as a primary readout. […]
Records with an inconclusive call do not appear. Calls of active or inactive are those of the source. The calls were made as follows: active = hit-call score of the fitted dose curve at least 0.9, where 1 is the maximum; inconclusive = response in the unintended direction; inactive = score below 0.9.
PARAMETER MEASURED: AC50

Take a look at these entries with their results.
> print(dat)
                                   compound  parameter.measured         test.value
1  Cc1c(COC(=O)[C@@H]2[C@H](/C=C(\Cl)C(F)(F)F)C2(C)C)cccc1-c1ccccc1                AC50   3.39 µM (active)
2  COC(=O)c1c(C(F)F)nc(C(F)(F)F)c(C2=NCCS2)c1CC(C)C                AC50  0.378 µM (active)
3                             O=P(O)(O)CCCl                AC50           inactive
4  CCOC(=O)C(C)OC(=O)c1cc(Oc2ccc(C(F)(F)F)cc2Cl)ccc1[N+](=O)[O-] (configuration not stated)                AC50     20 µM (active)
5      COC(=O)NC(=S)Nc1ccccc1NC(=S)NC(=O)OC                AC50     20 µM (active)

Value of measured AC50 for the entry `COC(=O)NS(=O)(=O)c1ccc(N)cc1` : inactive

Value of measured AC50 for the entry `COP(=S)(OC)SCn1nnc2ccccc2c1=O` : 4.19 µM (active)

Value of measured AC50 for the entry `O=C(Nc1ccccc1-c1ccc(Cl)cc1)c1cccnc1Cl` : 1.89 µM (active)

Value of measured AC50 for the entry `CC1(C)CON(Cc2ccccc2Cl)C1=O` : 3.23 µM (active)

Value of measured AC50 for the entry `O=C(O)c1c(Cl)ccc2cc(Cl)cnc12` : inactive

Value of measured AC50 for the entry CCCC(=NOCC)C1=C(O)CC(CC(C)SCC)CC1=O (configuration not stated) : inactive

Value of measured AC50 for the entry `CCOc1nc(F)cc2nc(S(=O)(=O)Nc3c(Cl)cccc3Cl)nn12` : 7.88 µM (active)

* * *

Read-out: Matrix Metallopeptidase 1 (MMP1), MMP1 (gene 4312)
Test: BSK_hDFCGF_MMP1: BioMAP Diversity Plus: hDFCGF Assay for Matrix Metallopeptidase 1 (MMP1) Biomarker Activity (AID 2283064)
Conditions: primary human foreskin fibroblasts; actives raise or lower the signal
Active and inactive are the calls of the source. The calls were made as follows: active = hit-call score of the fitted dose curve at least 0.9, where 1 is the maximum; inactive = score below 0.9.
Output constraint: value belongs to active, inactive

Solved entries (count: 3):
> print(dat)
                                   compound  classification
1                 N#CN=C1SCCN1Cc1ccc(Cl)nc1        inactive
2                Nc1cnn(-c2ccccc2)c(=O)c1Cl        inactive
3  CCOc1cc(C(C)(C)C)ccc1C1COC(c2c(F)cccc2F)=N1 (configuration not stated)          active

Recorded call for `COC(=O)NS(=O)(=O)c1ccc(N)cc1` ?
inactive

Recorded call for `CCOP(=S)(OCC)Oc1nc(Cl)n(C(C)C)n1` ?
inactive

Recorded call for `COC(=O)NC(=S)Nc1ccccc1NC(=S)NC(=O)OC` ?
active

Recorded call for CCCN(CC)CC1COC2(CCC(C(C)(C)C)CC2)O1 (configuration not stated) ?
active

Recorded call for `CCNC(=O)NC(=O)C(C#N)=NOC` ?
inactive

Recorded call for `CC(C)N1C(=O)N(c2ccccc2)CSC1=NC(C)(C)C` ?
inactive

Recorded call for COCc1cnc(C2=NC(C)(C(C)C)C(=O)N2)c(C(=O)O)c1 (configuration not stated) ?
inactive

Recorded call for `COc1cc(Cl)c(OC)cc1Cl` ?
inactive

Recorded call for `CC(C)N1C(=O)c2ccccc2NS1(=O)=O` ?
inactive

Recorded call for `COC(=O)c1c(C(F)F)nc(C(F)(F)F)c(C2=NCCS2)c1CC(C)C` ?
inactive

Recorded call for `CS(=O)(=O)c1ccc(C(=O)C2C(=O)CCCC2=O)c([N+](=O)[O-])c1` ?
inactive

Recorded call for `CNC(=O)Oc1cccc2ccccc12` ?
active

Recorded call for `CN=C=S` ?
inactive

Recorded call for `Clc1cccc(C(Cl)(Cl)Cl)n1` ?
inactive

Recorded call for `Cc1cc(C)nc(Nc2ccccc2)n1` ?
inactive

Recorded call for `Clc1nc(Cl)nc(Nc2ccccc2Cl)n1` ?
inactive

Recorded call for `CCOc1nc(C(Cl)(Cl)Cl)ns1` ?
inactive

Recorded call for `CCOP(=O)(OCC)Oc1nc(Cl)c(Cl)cc1Cl` ?
inactive

Recorded call for `N#Cc1c[nH]cc1-c1cccc2c1OC(F)(F)O2` ?
active

Recorded call for `CCSC(=O)N1CCCCCC1` ?
inactive

* * *

Test: BSK_CASM3C_Proliferation: Cell Proliferation Assessment in the BioMAP Diversity Plus: CASM3C Assay (AID 2283047);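 also: sulforhodamine B total protein stain as relative cell number at 560 nm; sub-confluent cells exposed 48 h before staining; fitted both ways against DMSO so gain or loss of cell number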
Conditions: primary human coronary artery smooth muscle cells
Activity calls are given as the source filed them. How the source made its calls: active means hit-call score of the fitted dose curve at least 0.9, where 1 is the maximum; inactive means score below 0.9.
Output constraint: value belongs to true (active), false (inactive)

Solved entries (count: 4):
> print(dat)
                                   compound  classification
1              CNC(=O)N(C)c1nnc(C(C)(C)C)s1           false
2          CCOP(=S)(OCC)Oc1nc(Cl)n(C(C)C)n1           false
3  C=CCOC(=O)C(C)(C)OC(=O)c1cc(-n2c(=O)cc(C(F)(F)F)n(C)c2=O)ccc1Cl           false
4                Nc1cnn(-c2ccccc2)c(=O)c1Cl           false

Recorded call for `COC(=O)c1c(C(F)F)nc(C(F)(F)F)c(C2=NCCS2)c1CC(C)C` ?
false

Recorded call for `CCSC(=O)N1CCCCCC1` ?
false

Recorded call for `CCN(CC)c1nc(C)cc(OP(=S)(OC)OC)n1` ?
false

Recorded call for `CC(C)Oc1cccc(NC(=O)c2ccccc2C(F)(F)F)c1` ?
false

Recorded call for COCc1cnc(C2=NC(C)(C(C)C)C(=O)N2)c(C(=O)O)c1 (centres undefined) ?
false

Recorded call for `Cc1ccc(N=CN(C)C=Nc2ccc(C)cc2C)c(C)c1` ?
true

Recorded call for `CC(C)NC(=O)N1CC(=O)N(c2cc(Cl)cc(Cl)c2)C1=O` ?
false

Recorded call for `CCOc1nc(C(Cl)(Cl)Cl)ns1` ?
false

Recorded call for CCCCC(O)(Cn1cncn1)c1ccc(Cl)cc1Cl (centres undefined) ?
false

Recorded call for `O=C(O)c1c(Cl)ccc2cc(Cl)cnc12` ?
false

Recorded call for `COC(=O)NS(=O)(=O)c1ccc(N)cc1` ?
false
